experiment: Cytotoxicity against human HepG2 cells at 10 uM measured after 72 hrs by MTT assay; type: toxicity, cell-based; conditions: hepg2, 72 h
Observed Property: Activity

Molecule: Oc1cccc2c1[C@H](O)C[C@@H](O)C21Oc2cccc3cccc(c23)O1
Observed Property: Activity
Meas Value: Non-Toxic
//
Molecule: CO[C@@H]1CC(=O)c2cccc3c2[C@@]12Oc1ccc(O)c4c1[C@](O3)(O2)[C@@H]1O[C@@H]1[C@@H]4O [PREUSSOMERIN C]
Observed Property: Activity
Meas Value: Non-Toxic
//
Molecule: O=C1CC[C@]23Oc4ccc(O)c5c4[C@](Oc4cccc1c42)(O3)[C@@H]1O[C@@H]1[C@@H]5O
Observed Property: Activity
Meas Value: Non-Toxic
//
Molecule: Oc1cccc2c1[C@H](O)[C@@H]1O[C@@H]1C21Oc2cccc3cccc(c23)O1
Observed Property: Activity
Meas Value: Non-Toxic
//
Molecule: Oc1cccc2c1[C@@H](O)[C@H]1O[C@H]1C21Oc2cccc3cccc(c23)O1
Observed Property: Activity
Meas Value: Non-Toxic
//
Molecule: COc1cc(O)cc2c1C(=O)O[C@@H](C)CCC[C@H](O)CCC2
Observed Property: Activity
Meas Value: Non-Toxic
//
Molecule: COc1cc(O)cc2c1C(=O)O[C@@H](C)CCCCCCC2 [LASIODIPLODIN]
Observed Property: Activity
Meas Value: Non-Toxic
//
Molecule: CO[C@H]1c2c(O)cccc2C2(Oc3cccc4cccc(c34)O2)[C@H](O)[C@H]1O
Observed Property: Activity
Meas Value: Non-Toxic

* * *

assay: Cytotoxicity against human HCT116 cells at 10 uM measured after 72 hrs by MTT assay; format: toxicity, cell-based; settings: hct-116, 72 h

Molecule: CO[C@@H]1CC(=O)c2cccc3c2[C@@]12Oc1ccc(O)c4c1[C@](O3)(O2)[C@@H]1O[C@@H]1[C@@H]4O [PREUSSOMERIN C]
Activity: Non-Toxic
//
Molecule: CO[C@H]1c2c(O)cccc2C2(Oc3cccc4cccc(c34)O2)[C@H](O)[C@H]1O
Activity: Non-Toxic
//
Molecule: COc1cc(O)cc2c1C(=O)O[C@@H](C)CCC[C@H](O)CCC2
Activity: Non-Toxic
//
Molecule: COc1cc(O)cc2c1C(=O)O[C@@H](C)CCC[C@@H](O)CCC2
Activity: Non-Toxic
//
Molecule: Oc1cccc2c1[C@H](O)C[C@@H](O)C21Oc2cccc3cccc(c23)O1
Activity: Non-Toxic
//
Molecule: COc1cc(O)cc2c1C(=O)O[C@@H](C)CCCCCCC2 [LASIODIPLODIN]
Activity: Non-Toxic
//
Molecule: Oc1cccc2c1[C@H](O)[C@@H]1O[C@@H]1C21Oc2cccc3cccc(c23)O1
Activity: Non-Toxic
//
Molecule: O=C1CC[C@]23Oc4ccc(O)c5c4[C@](Oc4cccc1c42)(O3)[C@H](O)CC5=O
Activity: Non-Toxic
//
Molecule: O=C1C[C@@H](O)[C@]23Oc4cccc5c4[C@](CC[C@@H]5O)(Oc4ccc(O)c1c42)O3
Activity: Non-Toxic

* * *

assay: Cytotoxicity against human HCT116 cells at 10 uM measured after 72 hrs by MTT assay; type: toxicity, cell-based; settings: hct-116, 72 h
Observed Property: Activity

Chemical Smiles: O=C1CC[C@]23Oc4ccc(O)c5c4[C@](Oc4cccc1c42)(O3)[C@@H]1O[C@@H]1[C@@H]5O
Observed Property: Activity
Meas Value: Non-Toxic
--
Chemical Smiles: Oc1cccc2c1[C@@H](O)[C@H]1O[C@H]1C21Oc2cccc3cccc(c23)O1
Observed Property: Activity
Meas Value: Non-Toxic
--
Chemical Smiles: Oc1cccc2c1[C@@H](O)[C@H](O)[C@@H](O)C21Oc2cccc3cccc(c23)O1
Observed Property: Activity
Meas Value: Non-Toxic
